{"smiles_repr": "COC(=S)NC[C@H]1CN(c2ccc(N3CNC(=O)C3)cc2)C(=O)O1", "melting point": "205 to 210 °C"}
{"smiles_repr": "NC[C@H]1CN(c2ccc(N3CCOC3=O)cc2)C(=O)O1", "melting point": "189 to 191 °C"}
{"smiles_repr": "COC(=S)N(C)C[C@H]1CN(c2cc(F)c(N3CNC(=O)C3)c(F)c2)C(=O)O1", "melting point": "154 to 156 °C"}

----------
{"compound": "CCCOC(=S)NC[C@H]1CN(c2cc(F)c(N3CNC(=O)C3)c(F)c2)C(=O)O1 [Example 165]", "melting point": "186 to 188 °C"}
{"compound": "CCOC(=S)NC[C@H]1CN(c2cc(F)c(N3CNC(=O)C3)c(F)c2)C(=O)O1 [Example 166]", "melting point": "178 to 180 °C"}
{"compound": "CC(=S)NC[C@H]1CN(c2cc(F)c(N3CNC(=O)C3)c(F)c2)C(=O)O1 [Example 108]", "melting point": "148 to 150 °C"}
